Molecular target: GST-MDM2 (1 – 188) (Homo sapiens)
Sequence (Q00987 1-188): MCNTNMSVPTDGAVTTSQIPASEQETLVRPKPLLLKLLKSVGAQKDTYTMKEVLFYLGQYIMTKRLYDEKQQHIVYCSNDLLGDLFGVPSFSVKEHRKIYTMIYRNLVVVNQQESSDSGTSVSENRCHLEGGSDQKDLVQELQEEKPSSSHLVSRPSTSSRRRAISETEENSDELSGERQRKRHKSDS
property name: IC50 (µM)
Value expressed in µM; do not type the unit.

Inquiry: Fill in: IC50 of O=C(O)CN1C(=O)[C@H](c2ccc(Cl)cc2)N(c2ccc(Cl)cc2)C(=O)[C@H]1Cc1ccccc1 [52RS] is ___
Reply text: 28
